System: yellow nutsedge
ASSAY: Test C postemergence
Assay type: in vivo, Cyperus esculentus
CONDITION_LABEL: 125 g ai/ha, postemergence; visual rating, scale 0 to 100 (0 no effect, 100 complete control)
Source text: […]
OBSERVATION_TYPE: Plant response rating, Nutsedge, Yellow
# print the numeric value only

Please review the entries below; each comes with its answer.
>  <TEST_SMILES>
N#Cc1cnn(-c2c(Br)cccc2Oc2ncc(Cl)cn2)c1

>  <Plant response rating, Nutsedge, Yellow>
5

$$$$
>  <TEST_SMILES>
Clc1cnc(Oc2cccc(Cl)c2-n2cc(Cl)cn2)nc1

>  <Plant response rating, Nutsedge, Yellow>
5

$$$$

Now, please, on to the next molecule.
Problem: Jot down Plant response rating, Nutsedge, Yellow (yellow nutsedge) of Clc1cnc(Oc2cccc(Br)c2-n2cc(I)nn2)nc1 .
Result: 5
